Would you mind telling me the reported pIC50 of each entry?
Molecular target: KRas G12D (Homo sapiens (Human), UniProt P01116, G12D)
Assay: KRas G12D Binding Assay (TR-FRET displacement of Cy5 labelled tracer)
Details: GDP-loaded KRAS G12D (amino acids 1:169), 60 minute incubation at 22° C.
Sequence (P01116 other isoform, or with tags, fused parts or gaps G12D): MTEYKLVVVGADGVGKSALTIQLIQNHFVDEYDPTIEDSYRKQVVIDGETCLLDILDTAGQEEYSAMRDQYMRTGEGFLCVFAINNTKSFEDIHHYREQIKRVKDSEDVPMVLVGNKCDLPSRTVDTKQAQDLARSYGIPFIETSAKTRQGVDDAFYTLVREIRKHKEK
Structures can show the parent of a compound that is named as a salt.
Just the number, please; pIC50 means minus log10 of the concentration in mol/L.

Form field pIC50, entry C[C@H]1C[C@H]1c1ccccc1-c1ncc2c(N3C[C@H]4CC[C@@H](C3)N4)nc(OCC34CCCN3CCC4)nc2c1F : 7.04

In plain terms, Cc1ccccc1-c1ncc2c(N3C[C@H]4CC[C@@H](C3)N4)nc(OCC34CCCN3CCC4)nc2c1F has a documented pIC50 of 5.93

For record O[C@@H]1C[C@@H]2CN(c3nc(OCCn4ccnc4C(F)F)nc4c(F)c(-c5cccc6cccc(Cl)c56)ncc34)C[C@H]1N2 the listed pIC50 is 6.16

The molecule listed as N#Cc1cccc2cccc(-c3ncc4c(N5C[C@H]6CC[C@@H](C5)N6)nc(OCC56CCCN5CCC6)nc4c3F)c12 shows pIC50 equal to 7.69

// sample CCc1ccc(O)cc1-c1ncc2c(N3C[C@H]4CC[C@@H](C3)N4)nc(OCC34CCCN3CCC4)nc2c1F , its pIC50 was 8.82

Documented pIC50 of CC(C)c1ccc(O)cc1-c1ncc2c(N3C[C@H]4CC[C@@H](C3)N4)nc(OCC34CCCN3CCC4)nc2c1F : 8.72

So for Cn1cnc2ccc(Oc3nc(N4C[C@H]5CC[C@@H](C4)N5)c4cnc(-c5cccc6cccc(Cl)c56)c(F)c4n3)cc21 , the logged pIC50 turned out to be 5.29

get_value(item= Oc1cc(-c2ncc3c(N4C[C@H]5CC[C@@H](C4)N5)nc(OCC45CCCN4C(CF)CC5)nc3c2F)c2ccccc2c1 (mixture of isomers) , readout=pIC50) returns 8.62

Measured pIC50 of OCCOc1nc(N2C[C@H]3CC[C@@H](C2)N3)c2cnc(-c3cc(O)cc4ccccc34)c(F)c2n1 : 6.28

The molecule identified as O[C@@H]1C[C@@H]2CN(c3nc(OCCn4ccnc4CF)nc4c(F)c(-c5cccc6cccc(Cl)c56)ncc34)C[C@H]1N2 registered its pIC50 at 6.23

get_value(item= Fc1c(-c2cccc3cccc(Cl)c23)ncc2c(N3CC4CCC(C3)N4)nc(OC[C@]34CCCN3C[C@H](c3ccccc3)C4)nc12 (stereo in doubt) [Example 221, bis-hydrochloride salt] , readout=pIC50) returns 7.80

For this molecule ( Fc1c(-c2cccc(Cl)c2Cl)ncc2c(N3C[C@H]4CC[C@@H](C3)N4)nc(OCC34CCCN3CCC4)nc12 ), measured pIC50 is 7.45

Lookup result for Cn1ccnc1COc1nc(N2C[C@H]3CC[C@@H](C2)N3)c2cnc(-c3cc(O)cc4ccccc34)c(F)c2n1 ; measured pIC50: 5.78

----------
For each record, write down the corresponding pIC50.
Target: KRas G12D (Homo sapiens (Human), UniProt P01116, G12D)
Assay: KRas G12D Binding Assay (TR-FRET displacement of Cy5 labelled tracer)
Conditions: GDP-loaded KRAS G12D (amino acids 1:169), 60 minute incubation at 22° C.
Counter-ions that a name gives are not always drawn.
Note on pIC50: it is the negative log10 of concentration, concentration in mol/L.

In plain terms, CC(C)(N)COc1nc(N2CC3CCC(C2)N3)c2cnc(-c3cccc4cccc(Cl)c34)c(F)c2n1 [Example 387, bis(2,2,2-trifluoroacetate)] has a documented pIC50 of 6.27

pIC50 for Fc1c(-c2cccc(Cl)c2C2CC2)ncc2c(N3CC4CCC(C3)N4)nc(OCC34CCCN3C[C@H](F)C4)nc12 (mixture of isomers) is 8.47

Looking up CN(C)C1(C)CN(c2nc(N3C[C@H]4CC[C@@H](C3)N4)c3cnc(-c4cccc5cccc(Cl)c45)c(F)c3n2)C1 , I found its pIC50 recorded as 6.60

Looking up Nc1cccc(CCOc2nc(N3C[C@H]4CC[C@@H](C3)N4)c3cnc(-c4cc(O)cc5ccccc45)c(F)c3n2)n1 , I found its pIC50 recorded as 6.95

Record summary for OCC12CCCN1CC(Oc1nc(N3C[C@H]4CC[C@@H](C3)N4)c3cnc(-c4cccc5cccc(Cl)c45)c(F)c3n1)C2 (stereo partly drawn) [Example 222, bis-TFA salt] : reported pIC50 = 5.95

Lookup result for Nc1c(Cl)cc(Cl)c(F)c1-c1ncc2c(N3C[C@H]4CC[C@@H](C3)N4)nc(OCC34CCCN3CCC4)nc2c1F ; measured pIC50: 6.56

----------
Please provide measured Kd for the entries that follow.
Biological target: KRas G12D (Homo sapiens (Human), UniProt P01116, G12D)
Test: KRas G12D Surface Plasmon Resonance (SPR) Binding Assay
Conditions: Biacore T200, immobilized biotinylated KRAS protein, 1:1 binding model
Sequence (P01116-2 other isoform, or with tags, fused parts or gaps G12D): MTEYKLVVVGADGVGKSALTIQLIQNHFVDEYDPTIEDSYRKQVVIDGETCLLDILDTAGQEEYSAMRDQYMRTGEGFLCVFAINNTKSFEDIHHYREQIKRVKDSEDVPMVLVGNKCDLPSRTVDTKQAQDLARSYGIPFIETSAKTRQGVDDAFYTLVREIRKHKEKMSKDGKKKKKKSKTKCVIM
Quick note: give the figure in µM, leave out the unit.

Query CO[C@@H]1C[C@@H]2CN(c3nc(OC[C@@]45CCCN4C[C@H](F)C5)nc4c(F)c(-c5cccc6cccc(Cl)c56)ncc34)C[C@H]1N2 [Example 397] yields Kd of 0.183

// sample OC[C@@H]1CCN1c1nc(N2C[C@H]3CC[C@@H](C2)N3)c2cnc(-c3cc(O)cc4ccccc34)c(F)c2n1 [Example 121, 2,2,2-trifluoroacetate] , its Kd was 0.197

// Kd value for CN1CCC[C@H]1COc1nc(N2C[C@H]3CC[C@@H](C2)N3)c2cnc(-c3cccc4cccc(Cl)c34)c(F)c2n1 [Example 132] : 0.0647

For this compound ( COc1cccnc1CCOc1nc(N2C[C@H]3CC[C@@H](C2)N3)c2cnc(-c3cc(O)cc4ccccc34)c(F)c2n1 [Example 140] ), measured Kd is 5.59

Field Kd (entry Cc1cccc2cccc(-c3ncc4c(N5C[C@H]6CC[C@@H](C5)N6)nc(OCCc5cccnc5)nc4c3F)c12 [Example 101] ) reads 12

Record Cc1cccc(F)c1-c1ncc2c(N3C[C@H]4CC[C@@H](C3)N4)nc(OCCc3nccn3C)nc2c1F [Example 316] . Reported Kd: 157

----------
Target: KRas G12D (Homo sapiens (Human), UniProt P01116, G12D)
Experiment: KRas G12D Binding Assay (TR-FRET displacement of Cy5 labelled tracer)
Settings: GDP-loaded KRAS G12D (amino acids 1:169), 60 minute incubation at 22° C.
Protocol: After a 60 minute incubation at 22° C., the reaction was measured using a PerkinElmer EnVision multimode plate reader via TR-FRET dual wavelength detection, and the percent of control (POC) calculated using a ratiometric emission factor. […] The POC values were fit to a 4-parameter logistic curve and the IC50 value was determined as the concentration where the curve crosses 50 POC. ND stands for “not determined.”
quantity: IC50 (nM)
# unit: nM | format: bare number

The compound identified as c1ccc2c(-c3cc4nc(OCC56CCCN5CCC6)nc(N5C[C@H]6CC[C@@H](C5)N6)c4cn3)cccc2c1 registered its IC50 at 387

Form field IC50, entry Cc1cccc(O)c1-c1ncc2c(N3CC4CCC(C3)N4)nc(OC[C@@]34CCCN3C[C@H](F)C4)nc2c1F (racemic) : 417

Sure, the documented IC50 for Oc1cc(-c2ncc3c(N4C[C@H]5CC[C@@H](C4)N5)nc(OCCc4ncccn4)nc3c2F)c2ccccc2c1 is 1870

// recorded IC50 for CN1CCC[C@H]1COc1nc(N2CC3CCC(C)(C2)N3)c2cnc(-c3cc(O)cc4ccccc34)c(F)c2n1 (stereo partly drawn) [Example 156, bis(2,2,2-trifluoroacetate)] : 9.1

Measured IC50, Oc1cc(Cl)c(C2CC2)c(-c2ncc3c(N4C[C@H]5CC[C@@H](C4)N5)nc(OC[C@@]45CCCN4C[C@H](F)C5)nc3c2F)c1 : 0.7

The recorded IC50 for entry Fc1c(-c2c(Cl)ccc3ccccc23)ncc2c(N3C[C@H]4CC[C@@H](C3)N4)nc(OCC34CCCN3CCC4)nc12 equals 561

----------
Molecular target: KRas G12D (Homo sapiens (Human), UniProt P01116, G12D)
Assay: KRas G12D Surface Plasmon Resonance (SPR) Binding Assay
Details: Biacore T200, immobilized biotinylated KRAS protein, 1:1 binding model
Would you kindly list pKd for each of these compounds?
Field pKd (float): negative decimal logarithm of the concentration in molar.

Data point: Cn1cnc(COc2nc(N3C[C@H]4CC[C@@H](C3)N4)c3cnc(-c4cc(O)cc5ccccc45)c(F)c3n2)c1 [Example 9] ; pKd = 6.59

Notebook: COc1nc(N2C[C@H]3CC[C@@H](C2)N3)c2cnc(-c3cccc4cccc(C)c34)c(F)c2n1 [Example 317] , pKd read as 4.04

Lab book: pKd of Oc1cc(-c2ncc3c(N4C[C@H]5CC[C@@H](C4)N5)nc(OCC4(C(F)(F)F)CC4)nc3c2F)c2ccccc2c1 [Example 51] noted as 6.21

# pKd (compound: Cn1cncc1CCOc1nc(N2C[C@H]3CC[C@@H](C2)N3)c2cnc(-c3cc(O)cc4ccccc34)c(F)c2n1 [Example 110] ) is 7.37

Noted for Cc1cccc(CCOc2nc(N3C[C@H]4CC[C@@H](C3)N4)c3cnc(-c4cc(O)cc5ccccc45)c(F)c3n2)n1 [Example 87] : its pKd reads 6.71

Kindly note the recorded pKd for Oc1cc(-c2ncc3c(N4C[C@H]5CC[C@@H](C4)N5)nc(OCCN4C[C@@H]5C[C@H]4CO5)nc3c2F)c2ccccc2c1 [Example 26] , which is 7.55

Record summary for CN1CCC[C@H]1COc1nc(N2C[C@H]3CC[C@@H](C2)N3)c2cnc(-c3cccc4c3CCCC4)c(F)c2n1 [Example 21] : reported pKd = 6.35
